measured_target: BoNT/A1 holotoxin (Hall hyper) (Clostridium botulinum, UniProt P0DPI0 2-1296)
test_name: yeast scFv FACS

binder	binding result
1D2 scFv (scFv, mouse) scFv: QVQLKESGAELMKPGASVKLSCKATGYTFTGYWIEWVKQRPGHGLEWIGEILPGSGSTNYNEKFKGKATFTADTSSNTAYMQLSSLTTEDSAIYYCASIYYGHDYWGQGTTLTVSSVDLKSGGSTSGSGKPGSGEGSSGSARDIVMTQSPKFMSTSVGDRVSVTCKASQNVGTNVAWYQQKPGQSPKALIYSASYRYSGVPDRFTGSGSGTDFTLTISNVQSEDLAEYFCQQYNSYPYTFGGGTKLEIK	no binding
10B12 scFv (scFv, mouse) scFv: EVQLQQSGAELVRPGTSVKLSCKSSGYTFTSDWMHWVIQRPGQGLEWIGVIDPSDSYTNYNQKFKGKATLTVDTSSSTAYMHLSSLTSEDSAVYYCARREGHYYGKAMDYWGQGTSVTVSSVDLKSGGSTSGSGKPGSGEGSSGSARDIVMSQSPASLAVSLGQRATISCRASESVDYDGDSYMNWYQQKPGQPPKLLIYAASNLESGIPARFSGSGSGTDFTLNIHPVEEEDAATYYCLQSNEAPWTFGGGTKLEIK	no binding
